target_or_system: human TREM2 extracellular domain (ECD) (Homo sapiens, UniProt Q9NZC2)
Sequence (Q9NZC2 19-174): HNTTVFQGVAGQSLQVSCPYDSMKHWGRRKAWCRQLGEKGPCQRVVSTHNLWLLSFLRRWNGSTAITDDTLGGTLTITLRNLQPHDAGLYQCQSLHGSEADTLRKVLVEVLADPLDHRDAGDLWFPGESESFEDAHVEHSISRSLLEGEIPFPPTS
method: SPR

binder	binding result
hu3.10C2 D116hE (antibody, V domains shown) VH: EVQLVESGGGLVQPGGSLKLSCATSGFPFSNVWMHWVRQASGKGLEWIAHIKAKSDNYATYYAESVKGRFTISRDDSKTTIYLQMNSLKTEDTAVYYCTGLEYWGQGTTVTVSS VL: DVVMTQSPLSLPVTPGEPASISCRSSRSLLTSKGITSLYWYLQKPGQSPQLLIYRMSNLASGIPDRFSGSGSGTDFTLKISRVEAEDVGVYYCAQFLVYPYTFGPGTKVEIK	binds
hu3.10C2 G106hD/D116hE (antibody, V domains shown) VH: EVQLVESGGGLVQPGGSLKLSCATSGFPFSNVWMHWVRQASGKGLEWIAHIKAKSDNYATYYAESVKGRFTISRDDSKTTIYLQMNSLKTEDTAVYYCTDLEYWGQGTTVTVSS VL: DVVMTQSPLSLPVTPGEPASISCRSSRSLLTSKGITSLYWYLQKPGQSPQLLIYRMSNLASGIPDRFSGSGSGTDFTLKISRVEAEDVGVYYCAQFLVYPYTFGPGTKVEIK	binds
hu3.10C2 G106hD/I107h insertion/D116hE (antibody, V domains shown) VH: EVQLVESGGGLVQPGGSLKLSCATSGFPFSNVWMHWVRQASGKGLEWIAHIKAKSDNYATYYAESVKGRFTISRDDSKTTIYLQMNSLKTEDTAVYYCTDILEYWGQGTTVTVSS VL: DVVMTQSPLSLPVTPGEPASISCRSSRSLLTSKGITSLYWYLQKPGQSPQLLIYRMSNLASGIPDRFSGSGSGTDFTLKISRVEAEDVGVYYCAQFLVYPYTFGPGTKVEIK	binds
hu3.10C2 I107h insertion (antibody, V domains shown) VH: EVQLVESGGGLVQPGGSLKLSCATSGFPFSNVWMHWVRQASGKGLEWIAHIKAKSDNYATYYAESVKGRFTISRDDSKTTIYLQMNSLKTEDTAVYYCTGILDYWGQGTTVTVSS VL: DVVMTQSPLSLPVTPGEPASISCRSSRSLLTSKGITSLYWYLQKPGQSPQLLIYRMSNLASGIPDRFSGSGSGTDFTLKISRVEAEDVGVYYCAQFLVYPYTFGPGTKVEIK	binds
hu3.10C2 G106hD (antibody, V domains shown) VH: EVQLVESGGGLVQPGGSLKLSCATSGFPFSNVWMHWVRQASGKGLEWIAHIKAKSDNYATYYAESVKGRFTISRDDSKTTIYLQMNSLKTEDTAVYYCTDLDYWGQGTTVTVSS VL: DVVMTQSPLSLPVTPGEPASISCRSSRSLLTSKGITSLYWYLQKPGQSPQLLIYRMSNLASGIPDRFSGSGSGTDFTLKISRVEAEDVGVYYCAQFLVYPYTFGPGTKVEIK	binds
hu3.10C2 I107h insertion/D116hE (antibody, V domains shown) VH: EVQLVESGGGLVQPGGSLKLSCATSGFPFSNVWMHWVRQASGKGLEWIAHIKAKSDNYATYYAESVKGRFTISRDDSKTTIYLQMNSLKTEDTAVYYCTGILEYWGQGTTVTVSS VL: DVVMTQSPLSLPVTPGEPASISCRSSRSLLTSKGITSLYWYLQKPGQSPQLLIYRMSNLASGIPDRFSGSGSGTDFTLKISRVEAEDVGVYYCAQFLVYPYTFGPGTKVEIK	binds
